- test-target: NCX2 (Rattus norvegicus)
- Construct: expressed in transfected cells
- Sequence (P48768 21-921): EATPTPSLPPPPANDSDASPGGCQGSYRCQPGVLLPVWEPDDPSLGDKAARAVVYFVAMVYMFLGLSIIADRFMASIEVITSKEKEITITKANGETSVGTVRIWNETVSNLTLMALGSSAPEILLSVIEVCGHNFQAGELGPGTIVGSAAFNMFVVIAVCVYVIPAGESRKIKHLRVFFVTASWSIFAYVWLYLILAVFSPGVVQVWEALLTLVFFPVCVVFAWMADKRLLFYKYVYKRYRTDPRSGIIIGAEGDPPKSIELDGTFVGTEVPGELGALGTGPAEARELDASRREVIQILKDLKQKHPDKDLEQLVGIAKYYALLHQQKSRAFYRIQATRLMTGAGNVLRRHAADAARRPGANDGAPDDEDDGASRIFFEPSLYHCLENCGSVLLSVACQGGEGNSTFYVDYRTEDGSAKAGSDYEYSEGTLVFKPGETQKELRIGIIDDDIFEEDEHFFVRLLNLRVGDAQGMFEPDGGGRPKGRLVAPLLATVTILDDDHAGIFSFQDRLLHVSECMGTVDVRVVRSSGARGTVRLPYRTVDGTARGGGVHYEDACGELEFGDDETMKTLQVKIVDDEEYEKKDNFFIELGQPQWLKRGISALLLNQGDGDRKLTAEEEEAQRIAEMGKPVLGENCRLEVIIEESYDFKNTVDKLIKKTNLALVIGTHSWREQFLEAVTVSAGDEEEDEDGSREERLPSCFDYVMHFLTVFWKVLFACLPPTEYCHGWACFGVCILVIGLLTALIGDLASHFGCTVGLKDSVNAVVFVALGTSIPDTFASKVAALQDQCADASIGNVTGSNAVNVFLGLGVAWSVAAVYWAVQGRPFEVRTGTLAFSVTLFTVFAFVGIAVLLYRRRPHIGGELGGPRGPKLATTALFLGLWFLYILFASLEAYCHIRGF
- protocol-details: 45Ca2+ radiotracer fluxes (efflux/influx) in BHK-NCX2 cells
- Format: cell-based
- condition-set: EC50 su NCX2, from the functional assays (summary)
- Protocol: The activity of NCX was established by means of three different subclones of baby hamsted kidney (BHK) cells that were stably transfected with one of each NCX isoforms, named BHK-NCX1, BHK-NCX2 and BHK-NCX3. […] The activity of the Na^+/Ca^2+ exchanger was measured by means of ^45Ca^2+ radiotracer variations in the cytoplasm of cells exposed to a protocol stimulating the forward or the reverse mode of the antiporter. […]
pEC50: −log10 of the molar value.
observation-type: pEC50

Give pEC50 for O=C1CN=C(c2ccccc2)c2cc([N+](=O)[O-])ccc2N1CN1CCCC1 8.70 to 9.00

---

- test-target: NCX1 (Canis lupus familiaris, UniProt P23685)
- Construct: expressed in transfected cells
- Sequence (P23685 33-970): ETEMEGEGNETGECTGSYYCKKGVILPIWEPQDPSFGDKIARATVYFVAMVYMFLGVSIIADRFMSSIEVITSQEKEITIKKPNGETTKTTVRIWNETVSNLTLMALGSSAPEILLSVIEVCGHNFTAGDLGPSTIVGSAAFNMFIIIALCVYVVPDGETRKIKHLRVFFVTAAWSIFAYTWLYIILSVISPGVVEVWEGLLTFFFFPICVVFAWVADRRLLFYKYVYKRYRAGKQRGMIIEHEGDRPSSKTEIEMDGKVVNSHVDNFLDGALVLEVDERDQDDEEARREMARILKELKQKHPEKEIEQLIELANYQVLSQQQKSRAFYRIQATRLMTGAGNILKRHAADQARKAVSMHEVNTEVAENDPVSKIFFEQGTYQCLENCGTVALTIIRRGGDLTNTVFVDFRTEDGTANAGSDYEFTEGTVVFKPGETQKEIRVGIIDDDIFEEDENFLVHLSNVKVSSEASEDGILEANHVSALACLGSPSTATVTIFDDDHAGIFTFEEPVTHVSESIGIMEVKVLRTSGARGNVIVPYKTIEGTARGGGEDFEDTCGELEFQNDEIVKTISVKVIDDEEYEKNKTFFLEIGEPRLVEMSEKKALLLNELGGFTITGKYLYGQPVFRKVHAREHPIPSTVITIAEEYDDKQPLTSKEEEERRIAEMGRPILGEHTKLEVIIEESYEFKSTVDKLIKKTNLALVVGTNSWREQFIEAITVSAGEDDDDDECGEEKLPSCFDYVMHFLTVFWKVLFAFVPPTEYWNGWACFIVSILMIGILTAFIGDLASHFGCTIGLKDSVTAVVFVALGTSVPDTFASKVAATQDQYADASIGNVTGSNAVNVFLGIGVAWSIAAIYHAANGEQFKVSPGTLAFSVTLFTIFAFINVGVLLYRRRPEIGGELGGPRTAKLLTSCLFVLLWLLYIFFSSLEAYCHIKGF
- protocol-details: 45Ca2+ radiotracer fluxes (efflux/influx) in BHK-NCX1 cells
- Assay type: cell-based
- condition-set: EC50 su NCX1, from the functional assays (summary)
pEC50: −log10 of the molar value.
observation-type: pEC50

Give NCX1 (Canis lupus familiaris, UniProt P23685) pEC50 for the following molecule: O=C1CN=C(c2ccccc2)c2cc([N+](=O)[O-])ccc2N1CN1CCCC1 8.70 to 9.00

---

- test-target: NCX1 (Canis lupus familiaris)
- Construct: expressed in transfected cells
- protocol-details: 45Ca2+ radiotracer fluxes (efflux/influx) in BHK-NCX1 cells
- Format: cell-based
- condition-set: EC50 for NCX1, forward mode, 45Ca2+ radiotracer, forward mode
observation-type: EC50 (nM)
Please reply with the bare figure in nM and do not write the unit itself.

Give EC50 for O=C1CN=C(c2ccccc2)c2cc([N+](=O)[O-])ccc2N1CN1CCCC1 [neurounina-1] 1.4

---

- test-target: NCX1 (Canis lupus familiaris)
- Construct: expressed in transfected cells
- protocol-details: 45Ca2+ radiotracer fluxes (efflux/influx) in BHK-NCX1 cells
- Type: cell-based
- condition-set: EC50 NCX1, reverse mode, 45Ca2+ radiotracer, reverse mode
observation-type: pEC50
Worth noting: pEC50 values are minus log10 of concentrations stated in mol/L.

Give pEC50 for O=C1CN=C(c2ccccc2)c2cc([N+](=O)[O-])ccc2N1CN1CCCC1 8.96
